assay.system: T1, human 4-1BB expressed on cells (human, UniProt Q07011 24-255)
T1 construct: whole, on cells; also called CHO-K1/hu4-1BB; cell surface human 4-1BB
T1 sequence (Q07011 24-255): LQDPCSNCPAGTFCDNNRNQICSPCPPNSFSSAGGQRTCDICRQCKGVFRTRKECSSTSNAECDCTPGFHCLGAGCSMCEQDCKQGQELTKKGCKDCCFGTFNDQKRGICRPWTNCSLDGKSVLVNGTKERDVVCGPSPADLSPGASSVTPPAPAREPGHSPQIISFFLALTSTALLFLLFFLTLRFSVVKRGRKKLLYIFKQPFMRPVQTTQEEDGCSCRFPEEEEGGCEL
method: flow cytometry competition with biotinylated human 4-1BB ligand on CHO-K1/human 4-1BB cells
outcome.measure: pIC50
# pIC50 is unitless: minus log10 of the molar concentration; print number only

>  <binder>
VV02-1LP-422 (Fc fusion, not shown: a dimerising Fc or GST; small tags and cut ends, Llama nanobody tested as fusion with human IgG1 Fc (N297A)) VHH: QLQLVESGGGLVQPGGSLRLSCAASGFTLADYAIGWFRQAPGKEREGVLCISSSGDVTIYADSVKGRFTISRDNAKNTVYLQMNSLKPEDTAVYYCVAPRICSTYSSDDYWGQGTQVTVSS

>  <recorded.number>
8.83

$$$$
>  <binder>
VV02-3LP-83 (Fc fusion, Llama nanobody tested as fusion with human IgG1 Fc (N297A); not shown: Human IgG1 Fc fragment with N297A, plus the hinge or linker joining it to the nanobody) VHH: EVDLVESGGGLVQPGGSLRLSCAASGFTFRSYAMSWARQVPGKGFEWVAYIYSDGSTYYADSVKGRFTISRDNAKDTVYLHMNSLKFEDMAVYYCATWRSQQVGRWDEYDHWGQGTQVTVSS

>  <recorded.number>
9.17

$$$$
>  <binder>
VV02-2LP-13 (Fc fusion, Llama nanobody tested as fusion with human IgG1 Fc (N297A); not shown: Human IgG1 Fc fragment with N297A, plus the hinge or linker joining it to the nanobody) VHH: AVQLVESGGGLVQPGGSLRLSCAASGFTFSSYAMSWARQVPGKGFEWVAYIYSDGSTYYADSVKGRFTISRDNAKDTVYLHMNSLKFEDMAVYYCATWRSQQVGRWDEYDHWGQGTQVTVSS

>  <recorded.number>
9.00

$$$$

Next up:
Inquiry: Give its pIC50 value. Item: VV02-1SP (1)-55 (Fc fusion, not shown: a dimerising Fc or GST; small tags and cut ends, Llama nanobody tested as fusion with human IgG1 Fc (N297A)) VHH: EVQLVESGGGLVQPGGSLRLSCAASGFTFSSSAMSWARQVPGKGFEWVAYIYSDGSTYYADSVKGRFTISRDNAKDTVYLHMNSLKFEDMAVYYCATWRSQQVGRWDEYDYWGQGIQVTVSS
Reply text: 9.24

Numbers sourced from patent US20240383993A1.
